The values you see were collected from patent US9566312B2.

Molecular target: cyclophilin A (CypA) (Homo sapiens (Human))
Sequence (P62937 whole entry): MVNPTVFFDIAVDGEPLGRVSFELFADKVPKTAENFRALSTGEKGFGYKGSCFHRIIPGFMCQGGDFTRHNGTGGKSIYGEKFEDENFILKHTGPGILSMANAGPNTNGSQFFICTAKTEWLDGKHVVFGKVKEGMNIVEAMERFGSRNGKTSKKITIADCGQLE
Assay: Inhibitor binding to cyclophilin proteins by SPR, CypA;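 also: Single-cycle kinetics on a Biacore T200, compound injected at several concentrations for 1 min each at 50 µL/min, then 10 min dissociation, in HEPES pH 7.4 buffer with 3% DMSO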
Parameters: unit not given here
Details: 1:1 binding model
Starred links: 1 amine or outer side, 2 acyl side, 3 side chain; linkers in the order of their positions; H or OH if unused. Non-standard residues stand in square brackets, D forms with d. Residues, ends and D or L forms follow the SMILES beside them. X58 = C[C@H](COCCN1CCN(C2CCC2)CC1)[C@@H](C(=O)[*:2])N(C)[*:1]; X38 = C[C@@H](CN1CCN2C(=O)OCC2C1)[C@@H](C(=O)[*:2])N(C)[*:1]; X29 = CC(=O)N1CCN(C[C@@H](C)[C@@H](C(=O)[*:2])N(C)[*:1])CC1; X83 = C[C@H](COC(=O)N1CCC(O)CC1)[C@@H](C(=O)[*:2])N(C)[*:1]; X6 = C[C@@H](CN1CCN(C2COC2)CC1)[C@@H](C(=O)[*:2])N(C)[*:1]; X21 = CCN1CCN(C[C@@H](C)[C@@H](C(=O)[*:2])N(C)[*:1])CC1; X47 = C[C@H](CN1CCC(F)(F)C1)[C@@H](C(=O)[*:2])N(C)[*:1]; MeBmt = C/C=C/C[C@@H](C)[C@@H](O)[C@H](NC)C(=O)O; X2 = COCC[C@@H](C)[C@@H](C(=O)[*:2])N(C)[*:1]; NMeL = CN[C@@H](CC(C)C)C(=O)O; NMeV = CN[C@H](C(=O)O)C(C)C; dNMeA = CN[C@H](C)C(=O)O; Abu = CC[C@H](N)C(=O)O
The following molecules are shown together with reported CypA Kd values.
Just the number, please, no unit attached.

Some entries whose results are on file:
C/C=C/C[C@@H](C)[C@@H](O)[C@H]1C(=O)N[C@@H](CC)C(=O)N(C)[C@H](C)C(=O)N(C)[C@@H]([C@H](C)COCCN2CCN(C3CCC3)CC2)C(=O)N[C@@H](C(C)C)C(=O)N(C)[C@@H](CC(C)C)C(=O)N[C@@H](C)C(=O)N[C@H](C)C(=O)N(C)[C@@H](CC(C)C)C(=O)N(C)[C@@H](CC(C)C)C(=O)N(C)[C@@H](C(C)C)C(=O)N1C [Compound 2.8.8] (cyclo(A[dA][NMeL][NMeL][NMeV][MeBmt][Abu][dNMeA][X58]V[NMeL]))    0.5
C/C=C/C[C@@H](C)[C@@H](O)[C@H]1C(=O)N[C@@H](CC)C(=O)N(C)[C@H](C)C(=O)N(C)[C@@H]([C@@H](C)CN2CCN(C3COC3)CC2)C(=O)N[C@@H](C(C)C)C(=O)N(C)[C@@H](CC(C)C)C(=O)N[C@@H](C)C(=O)N[C@H](C)C(=O)N(C)[C@@H](CC(C)C)C(=O)N(C)[C@@H](CC(C)C)C(=O)N(C)[C@@H](C(C)C)C(=O)N1C [Compound 2.17.5] (cyclo(A[dA][NMeL][NMeL][NMeV][MeBmt][Abu][dNMeA][X6]V[NMeL]))    0.7
C/C=C/C[C@@H](C)[C@@H](O)[C@H]1C(=O)N[C@@H](CC)C(=O)N(C)[C@H](C)C(=O)N(C)[C@@H]([C@H](C)CN2CCN(CC)CC2)C(=O)N[C@@H](C(C)C)C(=O)N(C)[C@@H](CC(C)C)C(=O)N[C@@H](C)C(=O)N[C@H](C)C(=O)N(C)[C@@H](CC(C)C)C(=O)N(C)[C@@H](CC(C)C)C(=O)N(C)[C@@H](C(C)C)C(=O)N1C [Compound 2.5.13] (cyclo(A[dA][NMeL][NMeL][NMeV][MeBmt][Abu][dNMeA][X21]V[NMeL]))    0.9

Query: # return recorded CypA Kd for entry C/C=C/C[C@@H](C)[C@@H](O)[C@H]1C(=O)N[C@@H](CC)C(=O)N(C)[C@H](C)C(=O)N(C)[C@@H]([C@@H](C)CN2CCN3C(=O)OCC3C2)C(=O)N[C@@H](C(C)C)C(=O)N(C)[C@@H](CC(C)C)C(=O)N[C@@H](C)C(=O)N[C@H](C)C(=O)N(C)[C@@H](CC(C)C)C(=O)N(C)[C@@H](CC(C)C)C(=O)N(C)[C@@H](C(C)C)C(=O)N1C (stereo partly drawn) [Compound 2.17.10] (cyclo(A[dA][NMeL][NMeL][NMeV][MeBmt][Abu][dNMeA][X38]V[NMeL]))
Response: 0.6

Query: # return recorded CypA Kd for entry C/C=C/C[C@@H](C)[C@@H](O)[C@H]1C(=O)N[C@@H](CC)C(=O)N(C)[C@H](C)C(=O)N(C)[C@@H]([C@H](C)CN2CCN(C(C)=O)CC2)C(=O)N[C@@H](C(C)C)C(=O)N(C)[C@@H](CC(C)C)C(=O)N[C@@H](C)C(=O)N[C@H](C)C(=O)N(C)[C@@H](CC(C)C)C(=O)N(C)[C@@H](CC(C)C)C(=O)N(C)[C@@H](C(C)C)C(=O)N1C [Compound 2.5.23] (cyclo(A[dA][NMeL][NMeL][NMeV][MeBmt][Abu][dNMeA][X29]V[NMeL]))
Response: 1.6

Query: Please indicate CypA Kd recorded for C/C=C/C[C@@H](C)[C@@H](O)[C@H]1C(=O)N[C@@H](CC)C(=O)N(C)[C@H](C)C(=O)N(C)[C@@H]([C@H](C)CN2CCC(F)(F)C2)C(=O)N[C@@H](C(C)C)C(=O)N(C)[C@@H](CC(C)C)C(=O)N[C@@H](C)C(=O)N[C@H](C)C(=O)N(C)[C@@H](CC(C)C)C(=O)N(C)[C@@H](CC(C)C)C(=O)N(C)[C@@H](C(C)C)C(=O)N1C [Compound 2.5.18] (cyclo(A[dA][NMeL][NMeL][NMeV][MeBmt][Abu][dNMeA][X47]V[NMeL]))
Response: 3.9

Query: Give CypA Kd for the following molecule: "C/C=C/C[C@@H](C)[C@@H](O)[C@H]1C(=O)N[C@@H](CC)C(=O)N(C)[C@H](C)C(=O)N(C)[C@@H]([C@H](C)COC(=O)N(C)C2CCN(C)CC2)C(=O)N[C@@H](C(C)C)C(=O)N(C)[C@@H](CC(C)C)C(=O)N[C@@H](C)C(=O)N[C@H](C)C(=O)N(C)[C@@H](CC(C)C)C(=O)N(C)[C@@H](CC(C)C)C(=O)N(C)[C@@H](C(C)C)C(=O)N1C"
Response: 0.7

Query: Supply recorded CypA Kd for C/C=C/C[C@@H](C)[C@@H](O)[C@H]1C(=O)N[C@@H](CC)C(=O)N(C)[C@H](C)C(=O)N(C)[C@@H]([C@H](C)CCOC)C(=O)N[C@@H](C(C)C)C(=O)N(C)[C@@H](CC(C)C)C(=O)N[C@@H](C)C(=O)N[C@H](C)C(=O)N(C)[C@@H](CC(C)C)C(=O)N(C)[C@@H](CC(C)C)C(=O)N(C)[C@@H](C(C)C)C(=O)N1C [Compound 2.13] (cyclo(A[dA][NMeL][NMeL][NMeV][MeBmt][Abu][dNMeA][X2]V[NMeL])) here.
Response: 1.7

Query: Given the molecule C/C=C/C[C@@H](C)[C@@H](O)[C@H]1C(=O)N[C@@H](CC)C(=O)N(C)[C@H](C)C(=O)N(C)[C@@H]([C@H](C)COC(=O)N2CCC(O)CC2)C(=O)N[C@@H](C(C)C)C(=O)N(C)[C@@H](CC(C)C)C(=O)N[C@@H](C)C(=O)N[C@H](C)C(=O)N(C)[C@@H](CC(C)C)C(=O)N(C)[C@@H](CC(C)C)C(=O)N(C)[C@@H](C(C)C)C(=O)N1C [Compound 2.5.8] (cyclo(A[dA][NMeL][NMeL][NMeV][MeBmt][Abu][dNMeA][X83]V[NMeL])) , write its reported CypA Kd.
Response: 1.7
